Reference source for all entries: patent US20210116454A1

- Tested on: SU-DHL-6
- Test details: 5-day viable cell number and apoptosis (7-AAD exclusion/Annexin V flow cytometry)
- Format: cell-based
- Reported conditions: Homo sapiens, 120 h; SU-DHL-6 cells, 5 days
Metric name: EC50

O=C1CC[C@H](N2C(=O)c3cccc(NCc4ccc(CN5CC(N6CCOCC6)C5)cc4F)c3C2=O)C(=O)N1 [Compound 1] | 452 nM

----------
- Tested on: KARPAS-1106P
- Test details: 5-day viable cell number and apoptosis (7-AAD exclusion/Annexin V flow cytometry)
- Type: cell-based
- Reported conditions: Homo sapiens, 120 h; KARPAS-1106P cells, 5 days
Metric name: EC50

O=C1CC[C@H](N2C(=O)c3cccc(NCc4ccc(CN5CC(N6CCOCC6)C5)cc4F)c3C2=O)C(=O)N1 | 56.1 nM
